Test system: BT-549
Assay: Growth inhibition of human BT549 cells assessed as cell growth at 10^-7 M incubated for 48 hrs by sulforhodamine B assay relative to control
Assay type: functional
Settings: BT-549, 48 h, read-out: Activity

{"mol-smiles": "C#C[C@@]1(O)[C@@H](CO)O[C@@H](n2cc(I)c3c(N)ncnc32)[C@@H]1O", "growth at 0.1 µM": "61 to 76%"}
{"mol-smiles": "C#C[C@@]1(O)[C@@H](CO)O[C@@H](n2cc(Br)c3c(N)ncnc32)[C@@H]1O", "growth at 0.1 µM": "65 to 84%"}
{"mol-smiles": "C#C[C@@]1(O)[C@@H](CO)O[C@@H](n2cc(Cl)c3c(N)ncnc32)[C@@H]1O", "growth at 0.1 µM": "86 to 90%"}

* * *

Tested on: NCI-H522
Experiment: Growth inhibition of human NCI-H522 cells assessed as cell growth at 10^-8 M incubated for 48 hrs by sulforhodamine B assay relative to control
Type: functional
Conditions: NCI-H522, 48 h, read-out: Activity
Listing: growth at 0.01 µM of selected compounds

{"mol-smiles": "C#C[C@@]1(O)[C@@H](CO)O[C@@H](n2ccc3c(N)ncnc32)[C@@H]1O", "growth at 0.01 µM": "90%"}
{"mol-smiles": "C#C[C@@]1(O)[C@@H](CO)O[C@@H](n2cc(Cl)c3c(N)ncnc32)[C@@H]1O", "growth at 0.01 µM": "82 to 88%"}
{"mol-smiles": "C#C[C@@]1(O)[C@@H](CO)O[C@@H](n2cc(I)c3c(N)ncnc32)[C@@H]1O", "growth at 0.01 µM": "83 to 85%"}

* * *

Recorded growth at 0.01 µM values for a group of molecules are listed next.
Tested on: HOP-62
Experiment: Growth inhibition of human HOP62 cells assessed as cell growth at 10^-8 M incubated for 48 hrs by sulforhodamine B assay relative to control
Assay type: functional
Settings: HOP-62, 48 h, read-out: Activity

{"mol-smiles": "C#C[C@@]1(O)[C@@H](CO)O[C@@H](n2cc(Br)c3c(N)ncnc32)[C@@H]1O", "tested-on": "HOP-62", "growth at 0.01 µM": "92 to 100%"}
{"mol-smiles": "C#C[C@@]1(O)[C@@H](CO)O[C@@H](n2cc(I)c3c(N)ncnc32)[C@@H]1O", "tested-on": "HOP-62", "growth at 0.01 µM": "83 to 89%"}
{"mol-smiles": "C#C[C@@]1(O)[C@@H](CO)O[C@@H](n2cc(Cl)c3c(N)ncnc32)[C@@H]1O", "tested-on": "HOP-62", "growth at 0.01 µM": "88 to 90%"}

* * *

growth at 0.1 µM listing for selected compounds.
System: UACC-62
Assay: Growth inhibition of human UACC62 cells assessed as cell growth at 10^-7 M incubated for 48 hrs by sulforhodamine B assay relative to control
Assay type: functional
Conditions: UACC-62, 48 h, read-out: Activity
measured-parameter: growth at 0.1 µM

{"mol-smiles": "C#C[C@@]1(O)[C@@H](CO)O[C@@H](n2cc(I)c3c(N)ncnc32)[C@@H]1O", "tested-on": "UACC-62", "obs-value": "81 to 84%"}
{"mol-smiles": "C#C[C@@]1(O)[C@@H](CO)O[C@@H](n2cc(Cl)c3c(N)ncnc32)[C@@H]1O", "tested-on": "UACC-62", "obs-value": "75 to 81%"}
{"mol-smiles": "C#C[C@@]1(O)[C@@H](CO)O[C@@H](n2cc(Br)c3c(N)ncnc32)[C@@H]1O", "tested-on": "UACC-62", "obs-value": "56 to 84%"}

* * *

Measured TGI values are reported for all entries that follow.
System: LOX IMVI
Test: Cytotoxicity against human LOXIMVI cells after 48 hrs by SRB assay
Type: functional
Conditions: read-out: TGI
measured-parameter: TGI

{"mol-smiles": "C#C[C@@]1(O)[C@@H](CO)O[C@@H](n2cc(Br)c3c(N)ncnc32)[C@@H]1O", "tested-on": "LOX IMVI", "obs-value": "176 to 351 nM"}
{"mol-smiles": "C#C[C@@]1(O)[C@@H](CO)O[C@@H](n2cc(Cl)c3c(N)ncnc32)[C@@H]1O", "tested-on": "LOX IMVI", "obs-value": "226 to 284 nM"}
{"mol-smiles": "C#C[C@@]1(O)[C@@H](CO)O[C@@H](n2cc(I)c3c(N)ncnc32)[C@@H]1O", "tested-on": "LOX IMVI", "obs-value": "241 to 1220 nM"}

* * *

Test system: HT-29
Test: Growth inhibition of human HT-29 cells assessed as cell growth at 10^-8 M incubated for 48 hrs by sulforhodamine B assay relative to control
Format: functional
Settings: HT-29, 48 h, read-out: Activity

{"mol-smiles": "C#C[C@@]1(O)[C@@H](CO)O[C@@H](n2cc(Cl)c3c(N)ncnc32)[C@@H]1O", "growth at 0.01 µM": "83 to 92%"}
{"mol-smiles": "C#C[C@@]1(O)[C@@H](CO)O[C@@H](n2cc(I)c3c(N)ncnc32)[C@@H]1O", "growth at 0.01 µM": "56 to 73%"}
{"mol-smiles": "C#C[C@@]1(O)[C@@H](CO)O[C@@H](n2cc(Br)c3c(N)ncnc32)[C@@H]1O", "growth at 0.01 µM": "78 to 94%"}

* * *

Tested on: HCC 2998
Assay: Growth inhibition of human HCC2998 cells assessed as cell growth at 10^-8 M incubated for 48 hrs by sulforhodamine B assay relative to control
Assay type: functional
Conditions: HCC 2998, 48 h, read-out: Activity
measured-parameter: growth at 0.01 µM

{"mol-smiles": "C#C[C@@]1(O)[C@@H](CO)O[C@@H](n2cc(Br)c3c(N)ncnc32)[C@@H]1O", "tested-on": "HCC 2998", "obs-value": "86 to 99%"}
{"mol-smiles": "C#C[C@@]1(O)[C@@H](CO)O[C@@H](n2cc(Cl)c3c(N)ncnc32)[C@@H]1O", "tested-on": "HCC 2998", "obs-value": "92 to 99%"}
{"mol-smiles": "C#C[C@@]1(O)[C@@H](CO)O[C@@H](n2cc(I)c3c(N)ncnc32)[C@@H]1O", "tested-on": "HCC 2998", "obs-value": "87 to 90%"}

* * *

System: OVCAR-4
Experiment: Growth inhibition of human OVCAR4 cells assessed as cell growth at 10^-7 M incubated for 48 hrs by sulforhodamine B assay relative to control
Type: functional
Details: OVCAR-4, 48 h, read-out: Activity
Catalogue of compounds with associated growth at 0.1 µM

{"mol-smiles": "C#C[C@@]1(O)[C@@H](CO)O[C@@H](n2cc(I)c3c(N)ncnc32)[C@@H]1O", "growth at 0.1 µM": "87 to 91%"}
{"mol-smiles": "C#C[C@@]1(O)[C@@H](CO)O[C@@H](n2cc(Cl)c3c(N)ncnc32)[C@@H]1O", "growth at 0.1 µM": "89 to 95%"}
{"mol-smiles": "C#C[C@@]1(O)[C@@H](CO)O[C@@H](n2cc(Br)c3c(N)ncnc32)[C@@H]1O", "growth at 0.1 µM": "78 to 89%"}

* * *

Tested on: SF-295
Experiment: Growth inhibition of human SF295 cells assessed as cell growth at 10^-6 M incubated for 48 hrs by sulforhodamine B assay relative to control
Type: functional
Settings: SF-295, 48 h, read-out: Activity
growth at 1 µM values for the molecules below.

{"mol-smiles": "C#C[C@@]1(O)[C@@H](CO)O[C@@H](n2cc(Cl)c3c(N)ncnc32)[C@@H]1O", "growth at 1 µM": "13 to 20%"}
{"mol-smiles": "C#C[C@@]1(O)[C@@H](CO)O[C@@H](n2cc(Br)c3c(N)ncnc32)[C@@H]1O", "growth at 1 µM": "24 to 36%"}
{"mol-smiles": "C#C[C@@]1(O)[C@@H](CO)O[C@@H](n2cc(I)c3c(N)ncnc32)[C@@H]1O", "growth at 1 µM": "31 to 35%"}

* * *

System: HL-60(TB)
Test: Cytotoxicity against human HL-60(TB) cells after 48 hrs by SRB assay
Assay type: functional
Settings: HL-60, 48 h, read-out: TGI
# TGI per record follows
measured-parameter: TGI

{"mol-smiles": "C#C[C@@]1(O)[C@@H](CO)O[C@@H](n2cc(Cl)c3c(N)ncnc32)[C@@H]1O", "obs-value": "197 to 317 nM"}
{"mol-smiles": "C#C[C@@]1(O)[C@@H](CO)O[C@@H](n2cc(Br)c3c(N)ncnc32)[C@@H]1O", "obs-value": "75.7 to 313 nM"}
{"mol-smiles": "C#C[C@@]1(O)[C@@H](CO)O[C@@H](n2cc(I)c3c(N)ncnc32)[C@@H]1O", "obs-value": "200 to 343 nM"}

* * *

Reported values of growth at 0.01 µM for individual entries
Test system: MDA-MB-435
Assay: Growth inhibition of human MDA-MB-435 cells assessed as cell growth at 10^-8 M incubated for 48 hrs by sulforhodamine B assay relative to control
Assay type: functional
Conditions: MDA-MB-435, 48 h, read-out: Activity

{"mol-smiles": "C#C[C@@]1(O)[C@@H](CO)O[C@@H](n2cc(Cl)c3c(N)ncnc32)[C@@H]1O", "growth at 0.01 µM": "88 to 89%"}
{"mol-smiles": "C#C[C@@]1(O)[C@@H](CO)O[C@@H](n2cc(Br)c3c(N)ncnc32)[C@@H]1O", "growth at 0.01 µM": "89 to 92%"}
{"mol-smiles": "C#C[C@@]1(O)[C@@H](CO)O[C@@H](n2cc(I)c3c(N)ncnc32)[C@@H]1O", "growth at 0.01 µM": "83 to 93%"}
